- Tested on: barnyardgrass (Echinochloa crus-qalli L.)
- experiment summary: Test Example 1: foliar treatment, growth inhibition rate on 14th day
- Format: in vivo
- assay setup: active ingredient amount 31 g/ha, 14th day after application
So I've got a bunch of compounds here, and I need their Growth inhibition rate (%) Barnyardgrass values.
Express it in %; write the number only.

Ask: I am curious: what Growth inhibition rate (%) Barnyardgrass value has been reported for CCn1ncc(OC(C)=O)c(-c2cc(Oc3nc4ccc(Cl)cc4o3)ccc2C)c1=O ?
Result: 100

Ask: Another compound to look at: COCCOCOc1c(C)nn(C)c(=O)c1-c1cc(Oc2ncc(C(F)(F)F)cc2Cl)ccc1C
Result: 98

Ask: Item: COC(=O)OC(C)Oc1c(C)nn(C)c(=O)c1-c1cc(Oc2ncc(C(F)(F)F)cc2Cl)c(C)cc1C (centres unmarked)
Result: 99

Ask: Cc1ccc(Oc2nc3ccccc3o2)cc1-c1c(O)c(C)nn(C)c1=O ?
Result: 85

Ask: Quick one: CCc1ccc(Oc2nc3ccc(Cl)cc3o2)cc1-c1c(OC(C)=O)c(C)nn(C)c1=O
Result: 100

Ask: Try CC(=O)Oc1c(C)nn(C)c(=O)c1-c1cc(Oc2ccc(C(F)(F)F)cc2Cl)ccc1C next.
Result: 98

Ask: Also COc1ccc(Oc2ncc(C(F)(F)F)cc2Cl)cc1-c1c(O)c(C)nn(C)c1=O ?
Result: 70

Ask: Cool, now Cc1ccc(Oc2ccc3nc(Cl)cn3n2)cc1-c1c(O)c(C)nn(C)c1=O
Result: 70
